Test system: CAKI-1
PROCEDURE DETAILS: NCI tumour cell line growth inhibition, 48 h
Activity calls are given as the source filed them. Cut-off read from the data, not from the text of the source: active = GI50 up to about 1.1 µM and inactive = higher.
Outcomes: active, inactive

                                    molecule  target_or_system  label_class
 0  O=C1CC(c2ccc(Cl)cc2)Oc2ccccc21 (configuration not stated)            CAKI-1     inactive
 1  COc1ccc(CCCNC(=O)c2cc(OC)c(OC)cc2CCO)cc1OC            CAKI-1     inactive
 2  O=C1NC(=O)C(CC(C(=O)C(=O)Nc2ccccc2Cl)C(=O)c2ccc3ccccc3c2)C(=O)N1 (configuration not stated)            CAKI-1     inactive
 3             O=C1Nc2ccc(Br)cc2C1=Nc1cccnc1            CAKI-1     inactive
 4  c1ccc(-c2cc3[nH]c4ccccc4[nH]c-3cc(-c3ccccc3)nn2)cc1            CAKI-1     inactive
 5  Cc1cc(S(=O)(=O)/N=C(\NN)NCC(=O)NN)c(S)cc1Cl            CAKI-1     inactive
 6  COC(=O)[C@]12CC[C@H]3CN(S(=O)(=O)c4ccc(C)cc4)[C@H]([C@H]31)[C@H](c1ccco1)N2S(=O)(=O)c1ccc(C)cc1            CAKI-1     inactive
 7  N#CCC(=O)N/N=C\C(O)C(O)C(O)C(O)CO (configuration not stated)            CAKI-1     inactive
 8         O=c1[nH]c(NCc2ccncc2)nc2[nH]cnc12            CAKI-1     inactive
 9     CS/C(=N\c1ccccc1Cl)NC(=O)c1ccc(Br)cc1            CAKI-1     inactive
10              COc1ccc2c(c1)OCCc1cn[nH]c1-2            CAKI-1       active
11                 CCN(CC)/[N+]([O-])=N/OCOC            CAKI-1     inactive
12  CC(=O)OC1[C@H](n2ccnc2)C[C@H]2[C@@H]3CC=C4CC(N5CCCC5)CC[C@]4(C)[C@H]3CC[C@]12C (some centres not stated)            CAKI-1     inactive
13           CCOC(=O)c1ccc(-c2cc(C)no2)[nH]1            CAKI-1     inactive
14  COC(=O)C1Cc2cccc(C)c2C1 (configuration not stated)            CAKI-1     inactive
15    Oc1c2c(nc3cc4c(cc13)OCO4)-c1ccccc1CCC2            CAKI-1     inactive
16        CN(C)c1ccc(/N=N\c2cccc3ncccc23)cc1            CAKI-1     inactive
17  CCCCCCCCCCC1OC([C@@H](O)CC[C@H](O)C2CC[C@@H](CCCCCCCC(O)CC3=CC(C)OC3=O)O2)CCC1O (some centres not stated)            CAKI-1     inactive
18  O=C1C(Br)=CC2(C=C1Br)CCNC1=C2C(=O)c2cccnc2C1=O            CAKI-1     inactive
19  O=c1[nH]c(=O)n(C2CC(O)C(CO)O2)cc1/N=N/NCc1ccccc1 (configuration not stated)            CAKI-1     inactive
20  COc1nn(Cc2ccccc2F)c2ccc([N+](=O)[O-])cc12            CAKI-1     inactive
21          Nc1nc(N)nc(CCCCc2nc(N)nc(N)n2)n1            CAKI-1     inactive
22  CC1=NN=C(N)N/C1=C/C(Sc1ccc(Cl)cc1)c1cccs1 (configuration not stated)            CAKI-1     inactive
23  CC(=O)NC1(NC(C)=O)C2CC(C1Cc1ccccc1)C(C)(C)C2C (configuration not stated)            CAKI-1     inactive
24  Cc1cc(NS(=O)(=O)c2ccc(Nc3c4ccccc4nc4ccc(C(=O)Nc5ccc(S(=O)(=O)N=C(N)N)cc5)cc34)cc2)no1            CAKI-1     inactive
25  COc1cc([C@@H]2c3cc4c(cc3[C@@H](Nc3ccccc3C(=O)c3ccccc3)[C@H]3COC(=O)[C@H]23)OCO4)cc(OC)c1OC            CAKI-1       active
26  CC1(C)OC(=O)N(c2ccccc2)C12C=Cc1cccc([N+](=O)[O-])c1O2 (configuration not stated)            CAKI-1     inactive
27  O=C1Sc2ccccc2NC1=C(C(=O)c1ccccc1)C(=O)c1ccccc1            CAKI-1     inactive
28  Cc1cc2nc(N3C(=O)/C(=C/c4ccc(Oc5ccccc5)cc4)N=C3c3ccccc3)sc2cc1C            CAKI-1     inactive
29              CCc1ncc(CO)n1Cc1cccc2ccccc12            CAKI-1     inactive
30  COc1ccc([C@@H]2OC(=O)C3C2C(=O)O[C@H]3c2ccc(OC)cc2)cc1 (some centres not stated)            CAKI-1     inactive
31              O=C(O)CNc1c2ccccc2nc2ccccc12            CAKI-1     inactive
32   O=C1NC(=O)c2ccc([N+](=O)[O-])c3cccc1c23            CAKI-1     inactive
33  CC(=O)O[C@H]1CC[C@@]2(C)C(=CC[C@H]3[C@@H]4C[C@H](N5CCCC5)[C@H](OC(C)=O)[C@@]4(C)CC[C@@H]32)C1            CAKI-1     inactive
34  CCOC12OC3=C(CC1CC1=C(CCC1=O)O2)C(=O)CC3 (configuration not stated)            CAKI-1     inactive
35        Cc1cnoc1/N=C1\C=C(O)C(=O)c2ccccc21            CAKI-1     inactive
36  COc1cc2c(cc1OC)C1=CCC(c3ccccc3)[N+]1(C)CC2 (configuration not stated)            CAKI-1     inactive
37           CCOC(=O)[C-]([N+]#N)[Si](C)(C)C            CAKI-1     inactive
38  COc1cc(OC)c2c(c1)OC(c1cccnc1)C(c1ccccc1)C2=O (configuration not stated)            CAKI-1     inactive
39  COc1cc(C2SC(=N)Nc3c2c(C)nn3C(=O)c2ccc(Cl)cc2)cc(OC)c1OC (configuration not stated)            CAKI-1     inactive
40  CCOC(=O)C1=C(C)NC(C)=C(C(=O)OCC)C1c1ccc(C)cc1            CAKI-1     inactive
41            C/C(=C\CNc1ncnc2c1ncn2CCC#N)CO            CAKI-1     inactive

###

Test system: DU-145
PROCEDURE DETAILS: NCI tumour cell line growth inhibition, 48 h
Structures can show the parent of a compound that is named as a salt. Active and inactive are the calls of the source. Cut-off read from the data, not from the text of the source: active = GI50 up to about 1.1 µM and inactive = higher.
Outcomes: true (1) for active, false (0) for inactive

COMPOUND	TARGET OR SYSTEM	LABEL CLASS
O=c1[nH]c(=O)n(C2CC(O)C(CO)O2)cc1/N=N/NCc1ccccc1 (stereo not given)	DU-145	false (0)
Cc1cc(C)n(C(=CC(=O)C(Cl)Cl)n2nc(C)cc2C)n1	DU-145	false (0)
COc1cccc(OC)c1/C=C1\OC(=O)c2cccc(OC)c21	DU-145	false (0)
CC1=CC[C@@]2(C)[C@@H]([C@@H]1C)[C@H]1CC[C@@H]3[C@@]4(C)CC[C@H](O)C(C)(C)[C@@H]4CC[C@@]3(C)[C@]1(C)C[C@@H]2O	DU-145	false (0)
COC(=O)c1c(OC(C)=O)ccc2c1c1c(n2C)C(=O)c2ccccc2C1=O	DU-145	false (0)
CC[C@]12CN3CCc4c([nH]c5ccccc45)[C@@](C(=O)OC)(c4cc5c(cc4OC)N(C)[C@H]4[C@@](O)(C(=O)OC)[C@H](OC(C)=O)[C@]6(CC)C=CCN7CC[C@]54[C@@H]76)CC(C3)[C@H]1O2 (stereo not given in full) [VINLEUROSINE SULFATE]	DU-145	true (1)
Nn1c(SCC(=O)NCc2ccccc2)nc2ccccc2c1=O	DU-145	false (0)
c1ccc2c(c1)nc1ccccn12	DU-145	false (0)
O=C(Nn1c(-c2ccccc2)nc2ccccc2c1=O)c1ccccn1	DU-145	false (0)
C=CCOC1OC(CS(=O)(=O)O)C(OC(C)=O)C(OC(C)=O)C1OC(C)=O (stereo not given)	DU-145	false (0)
O=C(O)C(Cc1ccc(O)c([N+](=O)[O-])c1)N1C(=O)c2ccccc2C1=O (stereo not given)	DU-145	false (0)
Cc1cc2nc(N3C(=O)/C(=C/c4ccc(Oc5ccccc5)cc4)N=C3c3ccccc3)sc2cc1C	DU-145	false (0)
CN(C)c1nc2n(CCO)ccnc-2c(=O)n1	DU-145	false (0)
Cn1c(=O)oc2cc(C(=O)CN3CCN(Cc4ccc5c(c4)OCO5)CC3)c(Cl)cc21	DU-145	false (0)
O=c1oc2cc(O)ccc2cc1-c1nc2ccccc2o1	DU-145	false (0)
C=C(COCO)C(C)=O	DU-145	false (0)
COc1cc(NS(C)(=O)=O)ccc1Nc1c2ccccc2nc2c1[nH]c1ccc(NC3OC(CO)C(O)C(O)C3O)cc12 (stereo not given)	DU-145	true (1)
C/C(=C\CNc1ncnc2c1ncn2CCC#N)CO	DU-145	false (0)
COc1ccc(-c2cc(-c3ccc(Nc4ccnc5cc(Cl)ccc45)cc3)nc(N)c2C#N)cc1	DU-145	false (0)
COC(=O)C1Cc2cccc(C)c2C1 (stereo not given)	DU-145	false (0)
